Tested on: S1507-2
MEASUREMENT PROTOCOL: drug sensitivity score (DSS, CellTiter-Glo viability, 72 h) (DSS (dimensionless)); higher = more sensitive; extreme values may be limits of the assay
drug sensitivity score values, listed per item
A bare number is all that is needed in reply.

MOLECULE: C[C@]12C=CC(=O)C=C1CC[C@@H]1[C@@H]2[C@@H](O)C[C@@]2(C)[C@H]1CC[C@]2(O)C(=O)CO [Prednisolone] (max concentration tested 10000 nM)
ASSAY TARGET: S1507-2
RESULT: 0.89
//
MOLECULE: Cc1c(CN2CCN(C(=O)[C@H](C)O)CC2)sc2c(N3CCOCC3)nc(-c3cnc(N)nc3)nc12 [GDC-0980] (max concentration tested 10000 nM)
ASSAY TARGET: S1507-2
RESULT: 12.2
//
MOLECULE: CN(N=O)C(=O)N[C@@H]1[C@@H](O)[C@H](O)[C@@H](CO)O[C@@H]1O [Streptozocin] (max concentration tested 10000 nM)
ASSAY TARGET: S1507-2
RESULT: 0
//
MOLECULE: CC(C)N(CCCNC(=O)Nc1ccc(C(C)(C)C)cc1)C[C@H]1O[C@@H](n2cc(Br)c3c(N)ncnc32)[C@H](O)[C@@H]1O [SGC0946] (max concentration tested 10000 nM)
ASSAY TARGET: S1507-2
RESULT: 3.16
//
MOLECULE: CCOC(=O)CCNc1cc(N2CCc3ccccc3CC2)nc(-c2ccccn2)n1 [GSK-J4] (max concentration tested 100000 nM)
ASSAY TARGET: S1507-2
RESULT: 13.4
//
MOLECULE: S=P(N1CC1)(N1CC1)N1CC1 [Thio-TEPA] (max concentration tested 50000 nM)
ASSAY TARGET: S1507-2
RESULT: 0
//
MOLECULE: CC(=O)OC[C@H]1O[C@@H]([S-])[C@H](OC(C)=O)[C@@H](OC(C)=O)[C@@H]1OC(C)=O.CCP(CC)CC.[Au+] [Auranofin] (max concentration tested 2500 nM)
ASSAY TARGET: S1507-2
RESULT: 1.36
//
MOLECULE: CO[C@H]1C[C@@H]2CC[C@@H](C)[C@@](O)(O2)C(=O)C(=O)N2CCCC[C@H]2C(=O)O[C@H]([C@H](C)C[C@@H]2CC[C@@H](OCCO)[C@H](OC)C2)CC(=O)[C@H](C)/C=C(\C)[C@@H](O)[C@@H](OC)C(=O)[C@H](C)C[C@H](C)/C=C/C=C/C=C/1C [Everolimus] (max concentration tested 100 nM)
ASSAY TARGET: S1507-2
RESULT: 6.7

Prompt: Consider the molecule COc1cc2ncnc(Nc3ccc(F)c(Cl)c3)c2cc1OCCCN1CCOCC1 [Gefitinib] (max concentration tested 10000 nM) . State its measured drug sensitivity score.
Completion: 2.3

Prompt: For the molecule O=[N+]([O-])c1ccc2c(c1)S(=O)(=O)C=C2 [Stattic] (max concentration tested 50000 nM) , give its reported drug sensitivity score.
Completion: 7.88

Prompt: Could you please provide reported drug sensitivity score for NC(=O)NO [Hydroxyurea] (max concentration tested 100000 nM) ? Thanks!
Completion: 0

Cited source for all entries: the supplement of paper PMC5579334
